Entry source: ChEMBL document CHEMBL5338745

- test-name: Half life in Sprague-Dawley rat at 1 mg/kg, iv
- Type: ADME, organism-based
- assay-setup: in vivo
property-label: half-life (min)

[a] COCC[C@@H](C(=O)Nc1ccc2nn(C)cc2c1)N1CC(=O)N(c2cc(Cl)ccc2-n2cc(Cl)nn2)CC1=O
[b] O=C(O)c1cc2cc(NC(=O)[C@H](Cc3ccc(N4CCN(C5CCC(O)CC5)CC4=O)cc3)N3CCN(c4cc(Cl)ccc4-n4cnnn4)C(=O)C3=O)ccc2[nH]1 (some centres not stated)
In: For the pair a and b , which member has the lower half-life number? Choose, then provide that item's label.
Out: b
(b: 27.6 min, a: 90 min)

----------
- test-name: Clearance in Sprague-Dawley rat at 0.5 mg/kg, iv
- Type: ADME, organism-based
- assay-setup: in vivo
property-label: clearance (mL/min/kg)
The figure you give is taken to be in mL/min/kg; do not add the unit.

In: Param item = C[C@@H]1CCC[C@H](c2ccc(-c3cc(Cl)ccc3-n3cc(Cl)nn3)oc2=O)c2cc(ccn2)-c2c(cnn2C(F)F)NC1=O ; retrieve measured clearance.
Out: 5.65

----------
- assay-system: Plasma kallikrein (Homo sapiens)
- Sequence (P03952 20-390 limits assumed): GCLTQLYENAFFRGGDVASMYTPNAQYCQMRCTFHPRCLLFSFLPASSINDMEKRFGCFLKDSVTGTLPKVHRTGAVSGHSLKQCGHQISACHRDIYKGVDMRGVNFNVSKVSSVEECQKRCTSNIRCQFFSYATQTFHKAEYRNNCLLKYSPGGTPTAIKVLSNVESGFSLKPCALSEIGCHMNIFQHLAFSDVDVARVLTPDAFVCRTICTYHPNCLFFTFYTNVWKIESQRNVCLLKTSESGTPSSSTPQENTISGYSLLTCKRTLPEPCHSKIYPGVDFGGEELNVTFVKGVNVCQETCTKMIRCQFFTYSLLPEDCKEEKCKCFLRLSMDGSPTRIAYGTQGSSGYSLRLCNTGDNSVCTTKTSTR
- Sequence (P03952 391-638 limits assumed): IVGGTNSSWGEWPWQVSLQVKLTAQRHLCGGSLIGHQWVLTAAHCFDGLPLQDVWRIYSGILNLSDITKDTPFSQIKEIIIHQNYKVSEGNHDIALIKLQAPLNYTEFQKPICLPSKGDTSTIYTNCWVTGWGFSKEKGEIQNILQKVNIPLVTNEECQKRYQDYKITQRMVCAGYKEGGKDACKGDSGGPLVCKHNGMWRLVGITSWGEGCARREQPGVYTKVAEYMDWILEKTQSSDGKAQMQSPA
property-label: Ki (µM)
The figure you give is taken to be in µM; do not add the unit.

In: Param item = COc1nn([C@@H](Cc2ccccc2)C(=O)Nc2ccc(C(=O)O)cc2)c(=O)cc1-c1cc(Cl)ccc1C(C)=O ; retrieve measured Ki.
Out: 0.103

----------
- test-name: Clearance in rat at 1 mg/kg, iv
- Format: ADME, organism-based
- assay-setup: in vivo
property-label: clearance (mL/min/kg)
The figure you give is taken to be in mL/min/kg; do not add the unit.

In: Param item = O=C(O)c1ccc(NC(=O)[C@H](CC2CC2)c2ccc(-c3c(C(F)F)ccc(Cl)c3F)c[n+]2[O-])cc1 (mixture of isomers) ; retrieve measured clearance.
Out: 1.9

----------
- Tested on: Plasma
- test-name: Anticoagulant activity in human plasma assessed as concentration required to double the activated partial thromboplastin time
- Type: functional
property-label: EC (µM)
The figure you give is taken to be in µM; do not add the unit.

COCC[C@@H](C(=O)Nc1ccc2nn(C)cc2c1)N1CC(=O)N(c2cc(Cl)ccc2-n2cc(Cl)nn2)CC1=O	5.3

In: Param item = CC(C)c1cc(-c2ccc3c(c2)[C@H](N)CO3)cc([C@@H](O)CN2CCc3cccc(C(=O)O)c32)c1 ; retrieve measured EC.
Out: 1.3

In: Same thing, different compound: CC(C)c1cc(COc2ccccc2CC(=O)O)cc(-c2ccc3c(c2)[C@H](N)CO3)c1
Out: 2.2

In: Same thing, different compound: O=C(O)c1cc2cc(NC(=O)[C@H](Cc3ccc(N4CCN(C5CCC(O)CC5)CC4=O)cc3)N3CCN(c4cc(Cl)ccc4-n4cnnn4)C(=O)C3=O)ccc2[nH]1 (stereo partly specified)
Out: 1.1

In: Same thing, different compound: C[C@@H]1CCC[C@H](c2ccc(-c3cc(Cl)ccc3-n3cc(Cl)nn3)oc2=O)c2cc(ccn2)-c2c(cnn2C(F)F)NC1=O
Out: 0.87

In: Same thing, different compound: [2H]C([2H])([2H])n1ncc2c1-c1ccnc(c1)[C@@H](c1coc(-c3cc(Cl)ccc3-n3cc(Cl)nn3)cc1=O)CCC[C@@H](C)C(=O)N2
Out: 2.7

----------
- test-name: Plasma protein binding in human at 10 pM incubated for 4 hrs by HPLC-MS/MS analysis
- Format: ADME, cell-free
- assay-setup: read-out: PPB
property-label: fraction unbound at 4 h, 1e-05 µM
Quick one: just the number, no unit, thanks!

In: Param item = CC[C@@H](NC(=O)N1C(=O)[C@H](Cc2ccnc(N)c2)[C@H]1C(=O)N(C)c1nccn1C)c1ccccc1 ; retrieve measured fraction unbound at 4 h, 1e-05 µM.
Out: 0.5

----------
- assay-system: UniProt P03951
- test-name: Binding affinity to FXIa (unknown origin) assessed as inhibition constant
property-label: Ki (nM)
The figure you give is taken to be in nM; do not add the unit.

In: Param item = COC(=O)NCC[C@@H]1Cc2cccc(c2)[C@@H](n2cnc(-c3cc(Cl)ccc3-n3cc(C(F)(F)F)cn3)cc2=O)CCC[C@@H](C)C(=O)N1 ; retrieve measured Ki.
Out: 5

----------
- assay-system: Coagulation factor XI (Homo sapiens, UniProt P03951)
- Sequence (P03951 19-387 limits assumed): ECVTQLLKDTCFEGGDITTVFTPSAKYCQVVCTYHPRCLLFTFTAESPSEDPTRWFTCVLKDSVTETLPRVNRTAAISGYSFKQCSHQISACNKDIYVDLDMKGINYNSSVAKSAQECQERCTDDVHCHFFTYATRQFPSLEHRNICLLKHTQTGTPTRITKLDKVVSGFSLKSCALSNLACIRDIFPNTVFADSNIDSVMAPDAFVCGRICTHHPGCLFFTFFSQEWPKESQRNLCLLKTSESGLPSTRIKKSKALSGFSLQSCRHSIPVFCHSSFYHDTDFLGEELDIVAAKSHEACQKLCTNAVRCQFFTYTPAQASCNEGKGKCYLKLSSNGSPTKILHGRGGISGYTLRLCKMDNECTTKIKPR
- Sequence (P03951 388-625 limits assumed): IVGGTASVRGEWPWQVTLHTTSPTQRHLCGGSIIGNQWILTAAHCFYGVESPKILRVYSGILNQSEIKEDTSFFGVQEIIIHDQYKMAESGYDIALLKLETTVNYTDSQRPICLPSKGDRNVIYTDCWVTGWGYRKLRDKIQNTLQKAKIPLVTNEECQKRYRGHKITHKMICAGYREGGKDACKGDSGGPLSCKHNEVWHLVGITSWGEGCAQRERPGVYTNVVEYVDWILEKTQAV
- test-name: Inhibition of FXIa (unknown origin)
pIC50: −log10 of the molar value.
property-label: pIC50

Nc1ccc(-c2nc(F)c([C@@H]3[C@H]4C[C@H]4c4cc(-c5cc(Cl)ccc5-n5cnnn5)cc(=O)n43)[nH]2)c(F)n1	8.48
Nc1ccc(-c2[nH]c(Cn3c4c(c(-c5cc(Cl)ccc5-n5cnnn5)cc3=O)C(=O)CC4)nc2F)c(F)n1	9.49
O=c1cc(-c2c(-n3cnnn3)ccc(Cl)c2F)cc2n1[C@H](c1ccc(-c3ccnc(CO)c3F)[nH]1)CC2	8.74
C[C@H]1COc2cn([C@@H](CC3CCCCO3)C(=O)Nc3ccc(C(N)=O)cc3)c(=O)cc2-c2c(ccc(Cl)c2F)C1 (some centres not stated)	8.77

[A] COc1cn(C(Cc2ccccc2)c2nc3cc(C(=O)O)ccc3[nH]2)c(=O)cc1-c1cc(Cl)ccc1-n1cnnn1 (configuration not stated)
[B] O=C(O)c1ccc(NC(=O)[C@H](Cc2ccccc2)N2CCC(c3cc(Cl)ccc3-n3cc(Cl)nn3)=CC2=O)cc1
[C] CC(C)c1cc(-c2ccc3c(c2)[C@H](N)CO3)cc([C@@H](O)CN2CCc3cccc(C(=O)O)c32)c1
In: Order the records, beginning with the lowest pIC50 and ending with the highest. Please list each label once, in the requested order.
Out: A, B, C
